# Tested on: Candida albicans
# Assay explanation: Antifungal activity against Candida albicans assessed as growth inhibition at 50 ug/ml by cup-plate method (reference value: 8 to 10 mm)
# Type: functional
# Details: read-out: DIZ
Would you kindly list zone of inhibition at 50 µg/mL for each of these compounds?
Units required after the number.

Enter measured zone of inhibition at 50 µg/mL, system Candida albicans, for the compound shown: CCN(CC)CN1C(=O)/C(=N/NC(=S)Nc2ccccc2)c2ccccc21
21 mm

// output zone of inhibition at 50 µg/mL; input CCN(CC)CN1C(=O)/C(=N/NC(=S)Nc2ccc(OC)cc2)c2ccccc21 ; system Candida albicans
11 mm

Give Candida albicans zone of inhibition at 50 µg/mL for the following compound: CCN(CC)CN1C(=O)/C(=N/NC(=S)Nc2ccc(C)cc2)c2ccccc21
11 mm

Look up and report measured zone of inhibition at 50 µg/mL (Candida albicans) for the following compound: CCN(CC)CN1C(=O)/C(=N/NC(N)=S)c2ccccc21
11 mm

State recorded zone of inhibition at 50 µg/mL with Candida albicans, entry OC(Cn1cncn1)(Cn1cncn1)c1ccc(F)cc1F [FLUCONAZOLE] , no comment.
31 mm

Using Candida albicans as the test system, report measured zone of inhibition at 50 µg/mL of CCN(CC)CN1C(=O)/C(=N/NC(=S)Nc2ccc(OC)cc2)c2cc(Cl)ccc21 .
11 mm

Report its zone of inhibition at 50 µg/mL with Candida albicans as the test system: CCN(CC)CN1C(=O)/C(=N/NC(=S)Nc2ccc(C)cc2)c2cc(Cl)ccc21
11 mm

Provide zone of inhibition at 50 µg/mL, system Candida albicans, entry CCN(CC)CN1C(=O)/C(=N/NC(N)=S)c2cc(Cl)ccc21
11 mm

Give the observed zone of inhibition at 50 µg/mL of CCN(CC)CN1C(=O)/C(=N/NC(=S)Nc2ccc(Cl)cc2)c2ccccc21 for Candida albicans.
11 mm

Report value only: zone of inhibition at 50 µg/mL, Candida albicans, CCN(CC)CN1C(=O)/C(=N/NC(=S)Nc2ccccc2)c2cc(Cl)ccc21
21 mm

Answer briefly: zone of inhibition at 50 µg/mL recorded on Candida albicans for CCN(CC)CN1C(=O)/C(=N/NC(=S)Nc2ccc(Cl)cc2)c2cc(Cl)ccc21
21 mm

====

# Tested on: Salmonella typhi
# Assay explanation: Antibacterial activity against Salmonella enterica subsp. enterica serovar Typhi assessed as growth inhibition at 50 ug/ml by cup-plate method (reference value: 8 to 10 mm)
# Format: functional
# Details: read-out: DIZ
Value type: zone of inhibition at 50 µg/mL (mm)
Hi! Could you send only the number? It should be in mm, unit omitted.

Indicate the recorded zone of inhibition at 50 µg/mL value for this molecule: CC1COc2c(N3CCN(C)CC3)c(F)cc3c(=O)c(C(=O)O)cn1c23 (stereo unspecified)
31

Give the measured zone of inhibition at 50 µg/mL for CCN(CC)CN1C(=O)/C(=N/NC(=S)Nc2ccccc2)c2cc(Cl)ccc21
11

Check the records and state zone of inhibition at 50 µg/mL for CCN(CC)CN1C(=O)/C(=N/NC(N)=S)c2cc(Cl)ccc21
11

Answer with reported zone of inhibition at 50 µg/mL of CCN(CC)CN1C(=O)/C(=N/NC(=S)Nc2ccccc2)c2ccccc21
21

In one line, give reported zone of inhibition at 50 µg/mL of the entry CCN(CC)CN1C(=O)/C(=N/NC(=S)Nc2ccc(C)cc2)c2ccccc21 .
21

Report measured zone of inhibition at 50 µg/mL; entry is CCN(CC)CN1C(=O)/C(=N/NC(=S)Nc2ccc(Cl)cc2)c2ccccc21
11

Could you please provide reported zone of inhibition at 50 µg/mL for CCN(CC)CN1C(=O)/C(=N/NC(=S)Nc2ccc(OC)cc2)c2ccccc21 ? Thanks!
21

Quote zone of inhibition at 50 µg/mL reported for CCN(CC)CN1C(=O)/C(=N/NC(=S)Nc2ccc(Cl)cc2)c2cc(Cl)ccc21 please.
21

Look up and state reported zone of inhibition at 50 µg/mL for CCN(CC)CN1C(=O)/C(=N/NC(=S)Nc2ccc(OC)cc2)c2cc(Cl)ccc21
21

Given the molecule CCN(CC)CN1C(=O)/C(=N/NC(=S)Nc2ccc(C)cc2)c2cc(Cl)ccc21 , write its reported zone of inhibition at 50 µg/mL.
11

Specify measured zone of inhibition at 50 µg/mL for CCN(CC)CN1C(=O)/C(=N/NC(N)=S)c2ccccc21 .
11
